targetEntity: PGR (gene 5241)
experimentNotes: TOX21_PR_BLA_Followup_Antagonist_ratio: Tox21 HEK293 Progesterone Receptor (PR) Antagonism Beta-lactamase Follow-Up Assay, Ratio (AID 2283934);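 also: PR-UAS-bla HEK293T cells stimulated with 1 nM R5020 agonist for 16 hr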
Activity calls are given as the source filed them. The calls were made as follows: active = hit-call score of the fitted dose curve at least 0.9, where 1 is the maximum; inconclusive = response in the unintended direction; inactive = score below 0.9.
Parameter call: string, one of active, inactive

Please share the test call associated with O=C(Oc1ccccc1)c1ccc(O)cc1 .
inactive

And what about the molecule C[C@]12CC[C@H]3[C@@H](CCC4=CC(=O)CC[C@@]43C)[C@@H]1CC[C@@H]2C(=O)CO ?
inactive

And what about the molecule CCCc1c(OCCCOc2ccc(OCC(=O)O)cc2)ccc(C(C)=O)c1O ?
active

And what about the molecule O=c1cc(-c2ccccc2)oc2cc(O)cc(O)c12 ?
active

And what about the molecule CC(=O)[C@H]1CC[C@H]2[C@@H]3CC=C4C[C@@H](O)CC[C@]4(C)[C@H]3CC[C@]12C ?
inactive

And what about the molecule C[C@H]1C[C@H]2[C@@H]3CCC4=CC(=O)C=C[C@]4(C)[C@@]3(F)[C@@H](O)C[C@]2(C)[C@@]1(O)C(=O)COP(=O)(O)O ?
inactive

And what about the molecule COC(=O)C1=C(C)NC(C)=C(C(=O)OCCN(C)Cc2ccccc2)C1c1cccc([N+](=O)[O-])c1 (stereo not drawn) ?
active

And what about the molecule C[C@H]1C[C@@H]2[C@H]([C@@H](O)C[C@@]3(C)[C@H]2CC[C@]3(O)C(=O)CO)[C@@]2(C)C=CC(=O)C=C12 ?
inactive
